Just for reference, patent US7094770B2 is where these values come from.

System: HIV-1
assay_summary: Anti-HIV evaluation in human PBM cells
Type: cell-based
measurement_context: Human immunodeficiency virus 1, PBMC, HIV-1
pEC50: −log10 of the molar value.

>  <compound>
Nc1ccn(C2OC(CO)C(CCO)C2F)c(=O)n1 (stereo not drawn) [Compound 24 (Series 2)]

>  <pEC50>
< 4.00

$$$$
>  <compound>
Cc1cn(C2CC(CO)N(C)O2)c(=O)[nH]c1=O (stereo not drawn) [Compound 6 (Series 2)]

>  <pEC50>
< 4.00

$$$$
>  <compound>
Cc1cn(C2OC(CO)C(C)C2F)c(=O)[nH]c1=O (stereo not drawn) [Compound 22 (Series 2)]

>  <pEC50>
< 4.00

$$$$
>  <compound>
Cc1cn(C2CC3COCC3O2)c(=O)[nH]c1=O (stereo not drawn) [Compound 1 (Series 1)]

>  <pEC50>
< 4.00

$$$$
>  <compound>
Nc1nc(=O)n(C2OC(CO)C(CO)C2F)cc1F (stereo not drawn) [Compound 10 (Series 2)]

>  <pEC50>
5.48

$$$$
>  <compound>
Cc1cn(C2OC(CO)C(CO)C2F)c(=O)[nH]c1=O (stereo not drawn) [Compound 1 (Series 2)]

>  <pEC50>
< 4.00

$$$$
>  <compound>
CN(O)C1C(CO)OC(n2ccc(N)nc2=O)[C@H]1F (stereo partly drawn) [Compound 58 (Series 2)]

>  <pEC50>
7.05

$$$$
>  <compound>
Cc1cn(C2CC(CO)=NO2)c(=O)[nH]c1=O (stereo not drawn) [Compound 28 (Series 2)]

>  <pEC50>
< 4.00

$$$$
>  <compound>
CC1C(CO)OC(n2cc(F)c(N)nc2=O)C1F (stereo not drawn) [Compound 21 (Series 2)]

>  <pEC50>
< 4.00

$$$$

---

assay_summary: Cytotoxicity in CEM cells
Format: cell-based
measurement_context: human
parameter: IC50 at 10 day

>  <molecule>
CNC1C(CO)OC(n2ccc(=O)[nH]c2=O)C1F (stereo not drawn) [Compound 69 (Series 2)]

>  <endpoint_result>
> 100 µM

$$$$
>  <molecule>
O=c1ccn(C2OC(CO)C(CO)C2F)c(=O)[nH]1 (stereo not drawn) [Compound 13 (Series 2)]

>  <endpoint_result>
> 100 µM

$$$$
>  <molecule>
Cc1cn(C2CC(CO)N(C)O2)c(=O)[nH]c1=O (stereo not drawn) [Compound 6 (Series 2)]

>  <endpoint_result>
> 100 µM

$$$$
>  <molecule>
Cc1cn(C2OC(CO)C(CO)C2F)c(=O)[nH]c1=O (stereo not drawn) [Compound 12 (Series 2)]

>  <endpoint_result>
> 100 µM

$$$$
>  <molecule>
Nc1nc(=O)n(C2OC(CO)C(CO)C2F)cc1F (stereo not drawn) [Compound 10 (Series 2)]

>  <endpoint_result>
> 100 µM

$$$$
>  <molecule>
Cc1cn(C2OC(CO)C(N(C)O)[C@@H]2F)c(=O)[nH]c1=O (stereo partly drawn) [Compound 55 (Series 2)]

>  <endpoint_result>
> 100 µM

$$$$
>  <molecule>
Cc1cn(C2CC(CO)=NO2)c(=O)[nH]c1=O (stereo not drawn) [Compound 28 (Series 2)]

>  <endpoint_result>
> 100 µM

$$$$
>  <molecule>
CN(O)C1C(CO)OC(n2cc(F)c(=O)[nH]c2=O)C1F (stereo not drawn) [Compound 60 (Series 2)]

>  <endpoint_result>
> 100 µM

$$$$
>  <molecule>
CCCCN(O)C1C(CO)OC(n2cc(C)c(=O)[nH]c2=O)C1F (stereo not drawn) [Compound 71 (Series 2)]

>  <endpoint_result>
30.1 µM

$$$$
>  <molecule>
CN(O)C1C(CO)OC(n2ccc(N)nc2=O)[C@H]1F (stereo partly drawn) [Compound 58 (Series 2)]

>  <endpoint_result>
40.2 µM

$$$$
>  <molecule>
Nc1ccn(C2OC(CO)C(CCO)C2F)c(=O)n1 (stereo not drawn) [Compound 24 (Series 2)]

>  <endpoint_result>
> 100 µM

$$$$
>  <molecule>
Cc1cn(C2CC(CO)C(CO)O2)c(=O)[nH]c1=O (stereo not drawn) [Compound 20 (Series 1)]

>  <endpoint_result>
> 100 µM

$$$$
>  <molecule>
CC1C(CO)OC(n2ccc(N)nc2=O)C1F (stereo not drawn) [Compound 20 (Series 2)]

>  <endpoint_result>
> 100 µM

$$$$
>  <molecule>
CC1C(CO)OC(n2cc(F)c(N)nc2=O)C1F (stereo not drawn) [Compound 21 (Series 2)]

>  <endpoint_result>
> 100 µM

$$$$
>  <molecule>
CNC1C(CO)OC(n2cc(C)c(=O)[nH]c2=O)C1F (stereo not drawn) [Compound 68 (Series 2)]

>  <endpoint_result>
> 100 µM

$$$$
>  <molecule>
CN(O)C1C(CO)OC(n2ccc(N)nc2=O)C1F (stereo not drawn) [Compound 59 (Series 2)]

>  <endpoint_result>
65.3 µM

$$$$
>  <molecule>
CCOP(=O)(CCC1=NOC(n2cc(C)c(=O)[nH]c2=O)C1)OCC (stereo not drawn) [Compound 33 (Series 2)]

>  <endpoint_result>
> 100 µM

$$$$
>  <molecule>
CN1OC(n2ccc(N)nc2=O)CC1CO (stereo not drawn) [Compound 39 (Series 2)]

>  <endpoint_result>
> 100 µM

$$$$

---

assay_summary: Cytotoxicity in PBM cells
Type: cell-based, human
measurement_context: human

>  <molecule>
CN1OC(n2ccc(N)nc2=O)CC1CO (centres unmarked) [Compound 39 (Series 2)]

>  <IC50>
> 100 µM

$$$$
>  <molecule>
CN(O)C1C(CO)OC(n2ccc(N)nc2=O)C1F (centres unmarked) [Compound 59 (Series 2)]

>  <IC50>
> 100 µM

$$$$
>  <molecule>
CC1=CC(C2CC(CO)N(C)O2)C(=O)NC1=O (centres unmarked) [Compound 5 (Series 2)]

>  <IC50>
> 100 µM

$$$$
>  <molecule>
O=c1ccn(C2OC(CO)C(CO)C2F)c(=O)[nH]1 (centres unmarked) [Compound 13 (Series 2)]

>  <IC50>
> 100 µM

$$$$
>  <molecule>
CCOP(=O)(CCC1=NOC(n2cc(C)c(=O)[nH]c2=O)C1)OCC (centres unmarked) [Compound 33 (Series 2)]

>  <IC50>
> 100 µM

$$$$
>  <molecule>
CCCCN(O)C1C(CO)OC(n2cc(C)c(=O)[nH]c2=O)C1F (centres unmarked) [Compound 71 (Series 2)]

>  <IC50>
13 µM

$$$$
>  <molecule>
CN(O)C1C(CO)OC(n2ccc(N)nc2=O)[C@H]1F (some centres unmarked) [Compound 58 (Series 2)]

>  <IC50>
7.4 µM

$$$$
>  <molecule>
Cc1cn(C2CC(CO)=NO2)c(=O)[nH]c1=O (centres unmarked) [Compound 28 (Series 2)]

>  <IC50>
> 100 µM

$$$$

---

Tested on: PBM cells
assay_summary: Cytotoxicity in PBM cells
Format: cell-based, human
The entries below are paired with their reported IC50.

>  <compound>
Cc1cn(C2OC(CO)C(CO)C2F)c(=O)[nH]c1=O (centres unmarked) [Compound 12 (Series 2)]

>  <IC50>
> 100 µM

$$$$
>  <compound>
Cc1cn(C2CC(CO)N(C)O2)c(=O)[nH]c1=O (centres unmarked) [Compound 40 (Series 2)]

>  <IC50>
> 100 µM

$$$$
>  <compound>
Cc1cn(C2CC(CO)C(CO)O2)c(=O)[nH]c1=O (centres unmarked) [Compound 4 (Series 1)]

>  <IC50>
> 100 µM

$$$$
>  <compound>
Cc1cn(C2OC(CO)C(CO)C2F)c(=O)nc1N (centres unmarked) [Compound 11 (Series 2)]

>  <IC50>
> 100 µM

$$$$
>  <compound>
CN(O)C1C(CO)OC(n2cc(F)c(=O)[nH]c2=O)C1F (centres unmarked) [Compound 61 (Series 2)]

>  <IC50>
> 100 µM

$$$$

---

assay_summary: Cytotoxicity in CEM cells
Type: cell-based
measurement_context: human
parameter: IC50 at 10 day (µM)

>  <molecule>
Cc1cn(C2OC(CO)C(CO)C2F)c(=O)nc1N (centres unmarked) [Compound 11 (Series 2)]

>  <unit_abbreviation>
µM

>  <value_comparator>
>

>  <endpoint_result>
100

$$$$
>  <molecule>
CNC1C(CO)OC(n2ccc(N)nc2=O)C1F (centres unmarked) [Compound 70 (Series 2)]

>  <unit_abbreviation>
µM

>  <value_comparator>
=

>  <endpoint_result>
109

$$$$
>  <molecule>
Nc1ccn(C2OC(CO)C(CO)C2F)c(=O)n1 (centres unmarked) [Compound 7 (Series 2)]

>  <unit_abbreviation>
µM

>  <value_comparator>
=

>  <endpoint_result>
5.1

$$$$
>  <molecule>
Nc1ncnc2c1ncn2C1OC(CO)C(CO)C1F (centres unmarked) [Compound 23 (Series 2)]

>  <unit_abbreviation>
µM

>  <value_comparator>
>

>  <endpoint_result>
100

$$$$
>  <molecule>
Cc1cn(C2OC(CO)C(C)C2F)c(=O)[nH]c1=O (centres unmarked) [Compound 22 (Series 2)]

>  <unit_abbreviation>
µM

>  <value_comparator>
>

>  <endpoint_result>
100

$$$$
